experiment-summary: inhibitors of polyQ protein aggregation (AID 1604)
condition-notes: polyglutamine-induced protein aggregation inhibition assay; stronger effect = higher value; concentration not given here
Use 1 (yes) when the recorded inhibition of aggregation is no lower than 60%; use 0 (no) when it is lower.

Asked: Test whether the molecule C[C@H](CCC(=O)O)[C@H]1CCC2C3C(CC[C@@]21C)[C@@]1(C)CC[C@@H](O)C[C@H]1C[C@H]3O (stereo not given in full) records inhibition of aggregation of 60% or higher.
Given back: 0 (no)

Asked: Check this molecule for inhibition of aggregation at or above 60%: C[C@H](CCC(=O)O)[C@H]1CCC2C3C(=O)CC4CC(=O)CC[C@]4(C)C3CC(=O)[C@@]21C (stereo not given in full)
Given back: 1 (yes)

Asked: For this molecule, is measured inhibition of aggregation 60% or higher? C#C[C@]1(O)CCC2C3CCC4=CC(=O)CC[C@@H]4C3CC[C@@]21CC (stereo not given in full)
Given back: 0 (no)

Asked: Is reported inhibition of aggregation greater than or equal to 60% here: `NC(N)=Nc1nc(CSCC/C(N)=N\S(N)(=O)=O)cs1`
Given back: 1 (yes)

Asked: Reported inhibition of aggregation at or above 60%? CC1(C)C2CC[C@]3(C)C(C(=O)C=C4[C@H]5C[C@@](C)(C(=O)O)CC[C@]5(C)CC[C@]43C)[C@@]2(C)CC[C@@H]1O (stereo not given in full)
Given back: 0 (no)

Asked: Say whether C[C@]12C=CC(=O)C=C1CCC1C2C(=O)C[C@@]2(C)C1CC[C@]2(O)C(=O)CO (stereo not given in full) shows inhibition of aggregation of 60% or more.
Given back: 0 (no)

Asked: Threshold query (inhibition of aggregation >= 60%) on `COc1ccc([C@@H]2CC(=O)c3c(O)cc(O[C@@H]4O[C@H](CO[C@H]5O[C@@H](C)[C@H](O)[C@@H](O)[C@H]5O)[C@@H](O)[C@H](O)[C@H]4O)cc3O2)cc1O`
Given back: 1 (yes)

Asked: Check if inhibition of aggregation >= 60% (inclusive). Item: CC1(C)O[C@@H]2CC3C4C[C@H](F)C5=CC(=O)CC[C@]5(C)C4[C@@H](O)C[C@]3(C)[C@]2(C(=O)CO)O1 (stereo not given in full)
Given back: 1 (yes)

Asked: Record CC1(C)C2CC[C@]3(C)C(C(=O)C=C4[C@@H]5C[C@@](C)(C(=O)O)CC[C@]5(C)CC[C@]43C)[C@@]2(C)CC[C@@H]1O (stereo not given in full) ; criterion: inhibition of aggregation no lower than 60%. Met?
Given back: 0 (no)

Asked: Is inhibition of aggregation at least 60%? Consider C#C[C@]1(OC(C)=O)CCC2C3CCC4=CC(=O)CC[C@@H]4C3CC[C@@]21C (stereo not given in full)
Given back: 0 (no)

Asked: Determine whether measured inhibition of aggregation meets or exceeds 60% for NCC[C@@H](O)C(=O)N[C@@H]1C[C@H](N)[C@@H](O[C@H]2O[C@H](CN)[C@@H](O)[C@H](O)[C@H]2O)[C@H](O)[C@H]1O[C@H]1O[C@H](CO)[C@@H](O)[C@H](N)C1O (stereo not given in full)
Given back: 0 (no)

Asked: Check the entry `NCCCCNCCCN` : does inhibition of aggregation equal or exceed 60%?
Given back: 0 (no)

Asked: Can C#C[C@]1(O)CCC2C3CCC4=CC(=O)CC[C@@H]4C3CC[C@@]21C (stereo not given in full) be said to have inhibition of aggregation at or above 60%?
Given back: 1 (yes)

Asked: Please indicate if the recorded inhibition of aggregation for CCCCC(=O)O[C@H]1CCC2C3CCc4cc(O)ccc4C3CC[C@@]21C (stereo not given in full) meets or exceeds 60%.
Given back: 0 (no)

Asked: Textbook exercise: given the entry C[N+]1(C)C2CC(OC(=O)[C@@H](CO)c3ccccc3)CC1C1OC12 (stereo not given in full) , state whether its inhibition of aggregation is greater than or equal to 60%.
Given back: 0 (no)

Asked: Given the entry CC(=O)[C@@]1(O)CCC2C3C=C(Cl)C4=CC(=O)[C@@H]5CC5[C@]4(C)C3CC[C@@]21C (stereo not given in full) , answer whether its inhibition of aggregation meets or surpasses 60%.
Given back: 0 (no)

Asked: Determine whether this molecule has inhibition of aggregation no lower than 60%: CC12CCC(=O)C=C1CCC1C2[C@@H](O)CC2(C)C1CC[C@]2(O)C(=O)COP(=O)(O)O (stereo not given in full)
Given back: 0 (no)

Asked: Check if inhibition of aggregation >= 60% (inclusive). Item: CN1CCN(C(c2ccccc2)c2ccc(Cl)cc2)CC1 (stereo not given)
Given back: 1 (yes)

Asked: Quick check: does O=C(O)CCCCC1SCC2NC(=O)NC21 (stereo not given) have inhibition of aggregation greater than or equal to 60%?
Given back: 0 (no)

Asked: Hi team, for CCOC(=O)OC(C)OC(=O)C1N2C(=O)C(NC(=O)[C@H](N)c3ccccc3)C2SC1(C)C (stereo not given in full) , is the recorded inhibition of aggregation at or above 60%?
Given back: 1 (yes)

Asked: Item CCN1CCN(C(=O)NC(C(=O)NC2C(=O)N3C(C(=O)O)=C(CSc4nnnn4C)CSC23)c2ccc(O)cc2)C(=O)C1=O (stereo not given) with inhibition of aggregation of 60% or above?
Given back: 0 (no)

Asked: Check the entry O=C(O)C1CCCNC1 (stereo not given) : does inhibition of aggregation equal or exceed 60%?
Given back: 0 (no)

Asked: Item NC[C@H]1O[C@H](O[C@H]2C(O[C@@H]3O[C@H](CO)[C@@H](O)[C@H]3O)[C@@H](O)[C@H](N)C[C@@H]2N)[C@H](N)[C@@H](O)[C@@H]1O (stereo not given in full) with inhibition of aggregation of 60% or above?
Given back: 0 (no)

Asked: Check if inhibition of aggregation >= 60% (inclusive). Item: `CO/N=C(/C(=O)N[C@@H]1C(=O)N2C(C(=O)O)=C(COC(C)=O)CS[C@H]12)c1csc(N)n1`
Given back: 1 (yes)

Asked: Kindly determine if inhibition of aggregation recorded for C[C@]12C=CC(=O)C=C1CCC1C3C[C@@H](O)[C@](O)(C(=O)CO)[C@@]3(C)C[C@H](O)[C@@]12F (stereo not given in full) is above or exactly 60%.
Given back: 0 (no)

Asked: Check if inhibition of aggregation >= 60% (inclusive). Item: CO[C@H]1C[C@H](O[C@H]2[C@H](C)[C@@H](OC3O[C@H](C)C[C@H](N(C)C)[C@H]3O)[C@@H](C)C[C@]3(CO3)C(=O)[C@H](C)[C@@H](O)[C@@H](C)[C@@H](C)OC(=O)[C@@H]2C)O[C@@H](C)[C@@H]1O (stereo not given in full)
Given back: 0 (no)

----------
Answer each item with its documented inhibition.
experiment-summary: LFS_MB_P medulloblastoma growth inhibition, cell-based, chromothripsis tumors, cisplatin or BGB combos (AID 1671449);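 also: cells exposed for 96 hours; 0% = vehicle DMSO and 100% = killing by high DMSO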
condition-notes: LFS_MB_P medulloblastoma cells, measured here: combination with cisplatin, at 5 µM, stronger effect = higher value
Give just the number in %; leave the unit off.

Asked: Name the recorded inhibition for `CC(C)N=c1cc2n(-c3ccc(Cl)cc3)c3ccccc3nc-2cc1Nc1ccc(Cl)cc1` .
Given back: 8.75

Asked: Can you share its inhibition? I mean this molecule: `CO[C@H]1/C=C/O[C@@]2(C)Oc3c(C)c(O)c4c(O)c(c(C=NN5CCN(C)CC5)c(O)c4c3C2=O)NC(=O)/C(C)=C\C=C\[C@H](C)[C@H](O)[C@@H](C)[C@@H](O)[C@@H](C)[C@H](OC(C)=O)[C@@H]1C`
Given back: 25

Asked: Tell me the measured inhibition of `Cc1c(-c2cnccn2)ssc1=S` , please.
Given back: -10.5

Asked: Looking for the measured inhibition of `O=C(Nc1ccncc1)c1cc([N+](=O)[O-])ccc1Cl` , can you help?
Given back: -22.9

Asked: What value of inhibition has been recorded for this entry: `O=c1cc(-c2cccc3c2Sc2ccccc2S3)oc(N2CCOCC2)c1`
Given back: -58.3

Asked: Given the entry `CCc1c2c(nc3ccc(O)cc13)-c1cc3c(c(=O)n1C2)COC(=O)[C@]3(O)CC` , report its measured inhibition.
Given back: 87.9

Asked: Requested field: inhibition. Item: `O=C(Nc1ccccc1)c1ccccc1O`
Given back: 3.47

Asked: I am curious: what inhibition value has been reported for NC(=O)c1ncn(C2OC(CO)C(O)C2O)n1 (centres undefined) ?
Given back: -20.9

Asked: Quick check: inhibition of `O=c1[nH]c(-c2ccc(C(F)(F)F)cc2)nc2c1CSCC2` ?
Given back: -17.2

----------
experiment-summary: differential killing of epithelial or mesenchymal cells, primary screen, imaging, PC-3E GFP, TEM4-18 mCherry, co-culture (AID 1345086);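 also: cells exposed to compound for 72 h before imaging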
condition-notes: imaging cell counts, measured here: epithelial PC-3E GFP cell survival, at 1 µM
endpoint: normalised cell number
Write the value as a bare number.

Asked: Which normalised cell number is listed for CC(CC(=O)N1C(=O)OC[C@H]1c1ccccc1)N1C(=S)OC[C@@H]1c1ccccc1 (some centres not stated) ?
Given back: 1.02

Asked: Returns the measured normalised cell number for the input molecule. Input: CC(=O)OCC(=O)[C@@]1(O)[C@H](OC(C)=O)CC2C3CCC4=CC(=O)C=C[C@]4(C)[C@@]3(F)[C@@H](O)C[C@@]21C (some centres not stated)
Given back: 0.98

Asked: # get_value(readout='normalised cell number', item= CCC(C)[C@H]1O[C@]2(C=C[C@@H]1C)C[C@@H]1C[C@@H](C/C=C(\C)[C@@H](OC3C[C@H](OC)C(O[C@H]4C[C@H](OC)[C@@H](O)[C@H](C)O4)[C@H](C)O3)[C@@H](C)/C=C/C=C3\COC4[C@H](OC)C(C)=C[C@@H](C(=O)O1)[C@]34O)O2 (some centres not stated) )
Given back: 1.13

Asked: Given the entry CCN(CC)C(=O)C1(c2ccccc2)CC1CN (configuration not stated) , report its measured normalised cell number.
Given back: 1.08

Asked: Please report the recorded normalised cell number for `O=C1SCN(Cc2ccccc2)CN1Cc1ccccc1` .
Given back: 0.96

Asked: Report normalised cell number for CC(=O)O[C@H]1CC[C@]2(C)C3CC[C@@]4(C)C(CC5O[C@@]6(CCC(C)CO6)[C@@H](C)C54)C3CC[C@@H]2C1 (some centres not stated) please.
Given back: 0.87

Asked: Item CCCCCOC(=O)Nc1nc(=O)n(C2O[C@H](C)[C@@H](O)[C@H]2O)cc1F (some centres not stated) has what recorded normalised cell number?
Given back: 0.48
